B1: RHOBTB2 (parent)
chain: HHHHGRDFLLRAASFDVCESVDEA

variants of: B1; experiment: protein stability index of a GFP-peptide fusion (GPS, HEK-293T) (PSI 1-6); higher = more stable; details: c terminus: a fixed tail appended;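 also: lentivirally expressed fusions sorted by FACS into six bins by GFP to DsRed ratio, PSI derived from sequencing read proportions per bin multiplied by bin number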
Given measured protein stability index, output 1 if it is greater than or equal to 4 and -1 if not.

Decide: protein stability index of F8W >= 4? -1

Identify whether the reported protein stability index of the following variant is 4 or greater: F8M 1

Item R11K with protein stability index of 4 or above? 1

Would you say F8S shows protein stability index at minimum 4? 1

API: above_or_equal(metric=protein stability index, cutoff=4) for item D7T -1

Given H1F , state whether its protein stability index is at least 4. -1

Item H4Y with protein stability index of 4 or above? -1

Exam item: decide whether the reported protein stability index for H1I is at least 4. -1

API: above_or_equal(metric=protein stability index, cutoff=4) for item H3I -1

Could you verify whether the entry H2P shows protein stability index of no less than 4? 1

// inclusive: protein stability index at least 4? input: H4M -1

Check the entry A12L : does protein stability index equal or exceed 4? -1

Hello, I need to know if R6P has measured protein stability index not below 4. Thanks! 1

Hello, I need to know if A12H has measured protein stability index not below 4. Thanks! -1

Hi team, for F8G , is the recorded protein stability index at or above 4? 1

Textbook exercise: given the entry H1G , state whether its protein stability index is greater than or equal to 4. 1

Is protein stability index for H2F at or above 4? -1

Could you verify whether the entry R11M shows protein stability index of no less than 4? -1

Can H3P be said to have protein stability index at or above 4? -1

Given H2G , state whether its protein stability index is at least 4. -1

Entry H1L : is its protein stability index no less than 4? -1

Say whether H1E shows protein stability index of 4 or more. 1

Does protein stability index meet or surpass 4 for G5A ? -1

Would you say R6E shows protein stability index at minimum 4? 1

API: above_or_equal(metric=protein stability index, cutoff=4) for item D7Y -1

Threshold query (protein stability index >= 4) on H1V -1

Hi, just wondering whether F8L shows protein stability index of 4 or higher. 1

Quick check: does R11N have protein stability index greater than or equal to 4? -1

Quick check, protein stability index >= 4? A12I -1

Please check the record L10N and state if its protein stability index is at or above 4. 1

Quick check, protein stability index >= 4? L9E 1

Item H1M with protein stability index of 4 or above? 1

Decide: is the reported value of protein stability index for H4D equal to or greater than 4? 1

Tell me whether protein stability index is at least 4 here: A12K 1

Determine whether this variant has protein stability index no lower than 4: H3Y -1

Exam item: decide whether the reported protein stability index for A13L is at least 4. -1

Tell me whether protein stability index is at least 4 here: S14I -1

API: above_or_equal(metric=protein stability index, cutoff=4) for item G5L -1

Could you verify whether the entry A13W shows protein stability index of no less than 4? -1

For this variant, is measured protein stability index 4 or higher? A12C -1

Answer whether protein stability index of D7K is greater than or equal to 4. -1

Record R11E ; criterion: protein stability index no lower than 4. Met? 1

The reported measurements were obtained from the supplement of paper PMC10567573.
